Record set of pIC50 for target or system PARP1 (Homo sapiens, UniProt P09874).
pIC50: −log10 of the molar value. Counter-ions that a name gives are not always drawn.
Endpoint Name: pIC50

INSERT INTO results (compound, experimental_system, measurement) VALUES
  ('CCn1c(=O)[nH]c2cc(CN3CCN(c4ccc(-n5cccn5)nc4C)CC3)sc2c1=O', 'PARP1 (Homo sapiens, UniProt P09874)', '> 7.00'),
  ('CCn1c(=O)[nH]c2cc(CN3CCN(c4ccc(C(=O)NC)nc4)CC3)ccc2c1=S [Compound 40, formate]', 'PARP1 (Homo sapiens, UniProt P09874)', '> 7.00'),
  ('CNC(=O)c1ccc(N2CCN(Cc3ccc4c(=O)[nH]c(=O)[nH]c4c3)CC2)cn1 [Compound 1, formate]', 'PARP1 (Homo sapiens, UniProt P09874)', '5.52 to 7.00'),
  ('CCn1c(=O)[nH]c2sc(CN3CCN(c4ccc(C(=O)NC)nc4F)CC3)cc2c1=O [Compound 530, bis formate]', 'PARP1 (Homo sapiens, UniProt P09874)', '> 7.00');

----------
- Test system: MDA-MB-436 cells
- Run Description: Colony formation assay
- Assay type: cell-based
- Cond: Homo sapiens, 3.0 μM, seeding density 2000-4000 cells/well and treatment time 12-14 days
Where a name gives a salt, the structure may show the parent alone.
Endpoint Name: inhibition at 3 µM

INSERT INTO assay_data (molecule, measurement) VALUES
  ('CCn1c(=O)[nH]c2cc(CN3CCN(c4ccc(C(=O)NC)nc4C)CC3)ccc2c1=S [Compound 51, formate]', '≥ 66.7%'),
  ('CCn1c(=O)[nH]c2cc(CN3CCN(c4ccc(C(=O)NC)nc4)CC3)ccc2c1=O [Compound 3, formate]', '≥ 66.7%'),
  ('CCn1c(=O)[nH]c2cc(CN3CCN(c4ccc(C(=O)NC)nc4C)CC3)sc2c1=O', '≥ 66.7%'),
  ('CCn1c(=O)[nH]c2cc(CN3CCN(c4ccc(C(=O)NC)nc4C)CC3)ccc2c1=O', '≥ 66.7%'),
  ('CCN1Cc2ccc(CN3CCN(c4ccc(C(=O)NC)nc4)CC3)cc2NC1=O [Compound 196, formate]', '33.3 to 66.7%');

----------
- Experimental System: UniProt P09874
pIC50: −log10 of the molar value. Counter-ions that a name gives are not always drawn.
Items are presented alongside their recorded pIC50.
Endpoint Name: pIC50

INSERT INTO measurements (compound, endpoint_name, measurement) VALUES
  ('CCn1c(=O)[nH]c2cc(CN3CC4(C3)CN(c3ccc(C(=O)NC)nc3)C4)ccc2c1=O', 'pIC50', '5.52 to 7.00'),
  ('CNC(=O)c1ccc(N2CCN(Cc3ccc4c(=O)n(C(C)C)c(=O)[nH]c4c3)CC2)cn1', 'pIC50', '> 7.00'),
  ('CCn1c(=O)[nH]c2cc(CN3CCN(c4ccc(C(=O)NC)nc4C)CC3=O)sc2c1=O', 'pIC50', '> 7.00'),
  ('CCn1c(=O)[nH]c2sc(CN3CCN(c4ccc(C(=O)NC)nc4)CC3)cc2c1=O [Compound 60, formate]', 'pIC50', '5.52 to 7.00'),
  ('CCn1c(=O)[nH]c2cc(CN3CCN(c4ccc(C#N)cn4)CC3)sc2c1=O', 'pIC50', '> 7.00'),
  ('CCn1c(=O)[nH]c2sc(CN3CCN(c4ccc(C(=O)NC)nc4C)CC3)cc2c1=O', 'pIC50', '> 7.00'),
  ('CCN1Cc2ccc(CN3CCN(c4ccc(C(=O)NC)nc4)CC3)cc2NC1=O [Compound 196, formate]', 'pIC50', '> 7.00');

Where these numbers come from: patent US20240132449A1
